pIC50 values, listed per item
- Tested on: A549 (lung cancer) cell line
- assay_details: MTT cytotoxicity assay, A549
- conditions_used: read-out: IC50 A549; MTT, 48 h drug treatment, A549
As a rule, pIC50 stands for the negative log10 of the concentration, concentration in M.

Examples with answers:
1. Cc1nc2ccc([N+](=O)[O-])cc2c(=O)n1CCn1c(C)nc2ccc([N+](=O)[O-])cc2c1=O	5.30
2. Cc1nc2ccc(Cl)cc2c(=O)n1-c1ccc(S(=O)(=O)c2ccc(-n3c(C)nc4ccc(Cl)cc4c3=O)cc2)cc1	5.38
3. Cc1ccc2nc(C)n(CCn3c(C)nc4ccc(C)cc4c3=O)c(=O)c2c1	4.80
4. Cc1nc2ccccc2c(=O)n1[C@H]1CC[C@H](n2c(C)nc3ccccc3c2=O)CC1	5.09
5. Cc1ccc2nc(C)n(Cc3ccc(Cn4c(C)nc5ccc(C)cc5c4=O)cc3)c(=O)c2c1	5.17
6. Cc1nc2ccc(Cl)cc2c(=O)n1[C@H]1CC[C@H](n2c(C)nc3ccc(Cl)cc3c2=O)CC1	5.09
7. Cc1nc2ccc(F)cc2c(=O)n1CCn1c(C)nc2ccc(F)cc2c1=O	5.10
8. CNC(=O)c1cc(Oc2ccc(NC(=O)Nc3ccc(Cl)c(C(F)(F)F)c3)cc2)ccn1 [Sorafenib, sorafenib, reference compound]	5.28

Asked: Which pIC50 value belongs to Cc1nc2ccc(F)cc2c(=O)n1-c1ccc(-n2c(C)nc3ccc(F)cc3c2=O)cc1 ?
Given back: 5.34

Asked: Ok, now Cc1nc2ccccc2c(=O)n1Cc1ccc(Cn2c(C)nc3ccccc3c2=O)cc1
Given back: 5.21

Asked: Then this molecule: Cc1nc2ccccc2c(=O)n1CCn1c(C)nc2ccccc2c1=O
Given back: 4.91

Asked: Entry Cc1ccc2nc(C)n([C@H]3CC[C@H](n4c(C)nc5ccc(C)cc5c4=O)CC3)c(=O)c2c1 please
Given back: 4.80

---

Listing of entries alongside the reported inhibition.
- Test system: A549 (lung cancer) cell line
- assay_details: MTT cytotoxicity assay, A549
- conditions_used: read-out: Cells viability (%) A549, 30 μM; 30 μM, 48 h, triplicate, mean ± s.e.m.
API: value field is a number in %; no unit string.

# example entries with known answers
1) Cc1ccc2nc(C)n(CCn3c(C)nc4ccc(C)cc4c3=O)c(=O)c2c1	89.7
2) Cc1nc2ccc(F)cc2c(=O)n1-c1ccc(-n2c(C)nc3ccc(F)cc3c2=O)cc1	81.8
3) Cc1nc2ccc([N+](=O)[O-])cc2c(=O)n1-c1ccc(S(=O)(=O)c2ccc(-n3c(C)nc4ccc([N+](=O)[O-])cc4c3=O)cc2)cc1	96.8
4) Cc1nc2ccc(Cl)cc2c(=O)n1Cc1ccc(Cn2c(C)nc3ccc(Cl)cc3c2=O)cc1	81.8
5) Cc1nc2ccc([N+](=O)[O-])cc2c(=O)n1[C@H]1CC[C@H](n2c(C)nc3ccc([N+](=O)[O-])cc3c2=O)CC1	82.8

Asked: Name the recorded inhibition for Cc1nc2ccccc2c(=O)n1[C@H]1CC[C@H](n2c(C)nc3ccccc3c2=O)CC1 .
Given back: 97.2

Asked: Next compound: Cc1nc2ccc(F)cc2c(=O)n1CCn1c(C)nc2ccc(F)cc2c1=O
Given back: 90

Asked: And Cc1nc2ccc([N+](=O)[O-])cc2c(=O)n1Cc1ccc(Cn2c(C)nc3ccc([N+](=O)[O-])cc3c2=O)cc1 ?
Given back: 87

Asked: Subsequent entry: Cc1nc2ccc(Cl)cc2c(=O)n1CCn1c(C)nc2ccc(Cl)cc2c1=O
Given back: 82.1

Asked: What about this compound? Cc1ccc2nc(C)n(-c3ccc(-n4c(C)nc5ccc(C)cc5c4=O)cc3)c(=O)c2c1
Given back: 95.1

Asked: Now the compound Cc1ccc2nc(C)n(-c3ccc(S(=O)(=O)c4ccc(-n5c(C)nc6ccc(C)cc6c5=O)cc4)cc3)c(=O)c2c1
Given back: 86.8

Asked: Thanks! And Cc1nc2ccc(Cl)cc2c(=O)n1[C@H]1CC[C@H](n2c(C)nc3ccc(Cl)cc3c2=O)CC1 ?
Given back: 97

---

Reported melting point values for the following compounds.

Examples from the recorded data:
1. Cc1nc2ccc([N+](=O)[O-])cc2c(=O)n1-c1ccc(-n2c(C)nc3ccc([N+](=O)[O-])cc3c2=O)cc1	307 to 310 °C
2. Cc1nc2ccccc2c(=O)n1-c1ccc(S(=O)(=O)c2ccc(-n3c(C)nc4ccccc4c3=O)cc2)cc1	294 to 297 °C
3. Cc1nc2ccc([N+](=O)[O-])cc2c(=O)n1CCn1c(C)nc2ccc([N+](=O)[O-])cc2c1=O	278 to 279 °C
4. Cc1ccc2nc(C)n(Cc3ccc(Cn4c(C)nc5ccc(C)cc5c4=O)cc3)c(=O)c2c1	285 to 287 °C
5. Cc1nc2ccccc2c(=O)n1-c1ccccc1N	109 to 111 °C
6. Cc1nc2ccccc2c(=O)n1-c1cccc(N)c1	121 to 123 °C
7. Cc1nc2ccccc2c(=O)n1-c1ccc(-n2c(C)nc3ccccc3c2=O)cc1	178 to 180 °C
8. Cc1nc2ccc(F)cc2c(=O)n1-c1ccc(S(=O)(=O)c2ccc(-n3c(C)nc4ccc(F)cc4c3=O)cc2)cc1	301 to 303 °C

Asked: // lookup melting point for Cc1nc2ccc(Cl)cc2c(=O)n1CCn1c(C)nc2ccc(Cl)cc2c1=O
Given back: 244 to 246 °C

Asked: Record: Cc1nc2ccc(Cl)cc2c(=O)n1-c1ccc(S(=O)(=O)c2ccc(-n3c(C)nc4ccc(Cl)cc4c3=O)cc2)cc1
Given back: 332 to 335 °C

Asked: Same question for Cc1nc2ccccc2c(=O)n1-c1ccccc1-n1c(C)nc2ccccc2c1=O please.
Given back: 187 to 190 °C

Asked: Param item: Cc1nc2ccc(Cl)cc2c(=O)n1[C@H]1CC[C@H](n2c(C)nc3ccc(Cl)cc3c2=O)CC1
Given back: 311 to 313 °C

Asked: Same for Cc1nc2ccccc2c(=O)n1Cc1ccc(Cn2c(C)nc3ccccc3c2=O)cc1
Given back: 277 to 279 °C

---

- Tested on: A549 (lung cancer) cell line
- assay_details: MTT cytotoxicity assay, A549
- conditions_used: read-out: Cells viability (%) A549, 10 μM; 10 μM, 48 h, triplicate, mean ± s.e.m.
# inhibition per entry
Kindly provide the numeric value in % only, without the unit symbol.

Below, each entry is followed by its recorded inhibition result.
1) Cc1nc2ccc(Cl)cc2c(=O)n1-c1ccc(S(=O)(=O)c2ccc(-n3c(C)nc4ccc(Cl)cc4c3=O)cc2)cc1 [Compound 7c]	72.3
2) Cc1nc2ccc([N+](=O)[O-])cc2c(=O)n1[C@H]1CC[C@H](n2c(C)nc3ccc([N+](=O)[O-])cc3c2=O)CC1 [Compound 3e]	77.1
3) Cc1nc2ccc(F)cc2c(=O)n1-c1ccc(-n2c(C)nc3ccc(F)cc3c2=O)cc1 [Compound 6d]	82.7
4) Cc1nc2ccccc2c(=O)n1Cc1ccc(Cn2c(C)nc3ccccc3c2=O)cc1 [Compound 4a]	60.4
5) Cc1nc2ccc(Cl)cc2c(=O)n1-c1ccc(-n2c(C)nc3ccc(Cl)cc3c2=O)cc1 [Compound 6c]	92
6) Cc1nc2ccc([N+](=O)[O-])cc2c(=O)n1-c1ccc(-n2c(C)nc3ccc([N+](=O)[O-])cc3c2=O)cc1 [Compound 6e]	95.4

Asked: inhibition lookup needed for Cc1nc2ccccc2c(=O)n1-c1cccc(-n2c(C)nc3ccccc3c2=O)c1 [Compound 11] , thanks.
Given back: 79.8

---

- Test system: A549 (lung cancer) cell line
- assay_details: MTT cytotoxicity assay, A549
- conditions_used: read-out: Cells viability (%) A549, 10 μM; 10 μM, 48 h, triplicate, mean ± s.e.m.
# reported inhibition; entries follow
Please state the number and follow it with the unit.

Below are worked cases with known answers.
1) Cc1nc2ccc(Cl)cc2c(=O)n1Cc1ccc(Cn2c(C)nc3ccc(Cl)cc3c2=O)cc1	79.5%
2) Cc1ccc2nc(C)n(-c3ccc(S(=O)(=O)c4ccc(-n5c(C)nc6ccc(C)cc6c5=O)cc4)cc3)c(=O)c2c1	53.1%
3) Cc1nc2ccc([N+](=O)[O-])cc2c(=O)n1Cc1ccc(Cn2c(C)nc3ccc([N+](=O)[O-])cc3c2=O)cc1	80.2%

Shift focus to the following entry.
Asked: May I ask what inhibition has been recorded for CNC(=O)c1cc(Oc2ccc(NC(=O)Nc3ccc(Cl)c(C(F)(F)F)c3)cc2)ccn1 [Sorafenib, sorafenib, reference compound] ?
Given back: 89.8%

---

Measured melting point of individual entries

Example entries and their recorded answers appear below.
1) Cc1ccc2nc(C)n(-c3ccc(-n4c(C)nc5ccc(C)cc5c4=O)cc3)c(=O)c2c1	263 to 265 °C
2) Cc1nc2ccc(Cl)cc2c(=O)n1Cc1ccc(Cn2c(C)nc3ccc(Cl)cc3c2=O)cc1	327 to 330 °C

Now for the molecule whose melting point we want.
Asked: Give its melting point value. Item: Cc1nc2ccc(F)cc2c(=O)n1Cc1ccc(Cn2c(C)nc3ccc(F)cc3c2=O)cc1
Given back: 217 to 219 °C

Reference source: paper PMC6458391
